test system: 184B5; assay: in vitro; set-up: crystal violet staining viability/proliferation assay, IC50 (SPSS), LM-2I on breast cancer and normal breast epithelial lines; settings: mean of 3 repeats; given as IC50; inhibitor
observed.property: CC50 (µM)
# unit: µM | format: bare number

Exam item: I have this compound here, CC[C@H]1CCC[C@H](O[C@H]2CC[C@H](N(C)CC(O)CN3CCNCC3)[C@@H](C)O2)[C@@H](C)C(=O)C2=C[C@@H]3[C@@H](C=C[C@@H]4C[C@@H](O[C@@H]5O[C@@H](C)[C@H](OC)[C@@H](OC)[C@H]5OC)C[C@@H]34)[C@@H]2CC(=O)O1 (stereo partly shown) , and I need its recorded CC50.
Marked response: 7.89

Numbers sourced from paper PMC8050083.
